tested on: biotinyl-Val-oxazolone; assay: self-aminoacylation, catalytic enhancement (BVO) (fold over background); higher = more active; k-Seq, kA / k0A0; sequences stand for … in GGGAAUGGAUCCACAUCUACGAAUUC…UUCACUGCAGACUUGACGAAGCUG
Fewer inactive variants are shown than the library holds.
Can you tell me self-aminoacylation for the items I'm about to list?
Please reply with the value in numeric form only.

What value of self-aminoacylation has been recorded for this entry: CUACUUAAAACCAUCGGUCUG [Fam1A.1 aminoacylation ribozyme variant]
0.923

What value of self-aminoacylation has been recorded for this entry: AAGUUUGCUAAGAGUCGCAAA [Fam3.1 aminoacylation ribozyme variant]
0.889

What value of self-aminoacylation has been recorded for this entry: UAGUAUGCUAAUAGUCGCAAG [Fam3.1 aminoacylation ribozyme variant]
1.13

What value of self-aminoacylation has been recorded for this entry: AAGUUUGCUAAUGGUCGAAAG [Fam3.1 aminoacylation ribozyme variant]
0.897

What value of self-aminoacylation has been recorded for this entry: AUUACCCUGAUUAUCGAGUGA [Fam2.1 aminoacylation ribozyme variant]
7.28

What value of self-aminoacylation has been recorded for this entry: AUUCACCUCGAUCAUCGGGUG [Fam2.2 aminoacylation ribozyme variant]
3.18

What value of self-aminoacylation has been recorded for this entry: AUUCACCCAGGUCCUCGGGUG [Fam2.2 aminoacylation ribozyme variant]
3.89

What value of self-aminoacylation has been recorded for this entry: CCACCCGUCAAGCAAUCGGUC [Fam1B.1 aminoacylation ribozyme variant]
1.44

====

system: biotinyl-Leu-oxazolone; test: self-aminoacylation, catalytic enhancement (BLO) (fold over background); higher = more active; k-Seq, kA / k0A0; sequences stand for … in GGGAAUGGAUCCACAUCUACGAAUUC…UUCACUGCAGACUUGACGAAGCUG
This sample holds only a part of the variants without activity.
Can you tell me self-aminoacylation for the items I'm about to list?

What value of self-aminoacylation has been recorded for this entry: AUAUUUGCUAAUAGUCGCAAG [Fam3.1 aminoacylation ribozyme variant]
1.37

What value of self-aminoacylation has been recorded for this entry: CUACUUCAGACAAUCGGUCUG [Fam1A.1 aminoacylation ribozyme variant]
0.807

What value of self-aminoacylation has been recorded for this entry: AAGUCUGCAAAUAGUCGCAAG [Fam3.1 aminoacylation ribozyme variant]
0.891

What value of self-aminoacylation has been recorded for this entry: CCACACUCCCAGCAAUCGGUC [Fam1B.1 aminoacylation ribozyme variant]
1.6

====

system: biotinyl-Leu-oxazolone; experiment: self-aminoacylation, catalytic enhancement (BLO) (fold over background); higher = more active; k-Seq, kA / k0A0; sequences stand for … in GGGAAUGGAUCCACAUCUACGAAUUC…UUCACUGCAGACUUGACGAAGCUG
Fewer inactive variants are shown than the library holds.
Attribute measured: self-aminoacylation

What is its self-aminoacylation for biotinyl-Leu-oxazolone? Entry: CUUCACCGAGGUCAUCGGGUG [Fam2.2 aminoacylation ribozyme variant]
7.45

What is its self-aminoacylation for biotinyl-Leu-oxazolone? Entry: CUACUUCAAACAAUCUGGCUG [Fam1A.1 aminoacylation ribozyme variant]
1.02

What is its self-aminoacylation for biotinyl-Leu-oxazolone? Entry: AAGUUUGCUAGCAGUCGCAAG [Fam3.1 aminoacylation ribozyme variant]
1.04

What is its self-aminoacylation for biotinyl-Leu-oxazolone? Entry: AUUCACCUAGGUCAUCUUGUG [Fam2.2 aminoacylation ribozyme variant]
1.18

Ref: the supplement of paper PMC9233669
